Cited source for all entries: the RNAGym collection of RNA variant scans (doi:10.7554/elife.80360)

B1: Hairpin Ribozyme (parent)
chain: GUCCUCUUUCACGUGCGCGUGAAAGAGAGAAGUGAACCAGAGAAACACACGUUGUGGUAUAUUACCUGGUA

# Variants of: B1
# method: self-cleavage, relative activity (ratio to wild type); higher = more cleavage; co-transcriptional
Answer each item with its documented self-cleavage.

Study these solved cases before continuing.
GUCCUCUUUCACGUGUGCUUGAAAGAGAGAAGUGAACCAGAGAAACACACGUUGUGGUAUAUUACCUGGUA [C16U G19U]: 0.661
GUCCUCGUUCACGUGCGCGGGAAAGAGAGAAGUGAACCAGAGAAACACACGUUGUGGUAUAUUACCUGGUA [U7G U20G]: 0.453

Here are 6 variants. What values of self-cleavage were reported for them?
1. GUCCUCUUUCACGUGCGCGUGAAAGAGAGAAGUGAACCAGAGAAAGACACGUUGUGGUAUAUUACGUGGUA [C46G C66G]
2. GUCCUCUUUCACGUGCGCGUGAAAGAGAGAAGUGAACCAGAGAAACACACGUGGUGGUAUAUUACCUGGUU [U53G A71U]
3. GUCCUCUUUCACGUGCGCGUGAAAGAGAGAAGUAAACCAGAGAAACACACGUUGUGGUAUAUUACCUGGUA [G34A]
4. GUCCUCUUUCACGUGCGCGUGAAAGAGAGAAGUGUACCAGAGAAACACACGUUGUGGUAUAUUACCUAGUA [A35U G68A]
5. GUCCUCUUUGACGUGCGCGUGAAAGAGAGAAGUGAACCAGAGAAAGACACGUUGUGGUAUAUUACCUGGUA [C10G C46G]
6. GUCCUCUUUCACGUGCGCGUGAAAGAGAGAAGUGAAUCAGAGAAACACACGUUGUGGUAUAUUACCUGGUA [C37U]

## Result
1: 0.162; 2: 0.635; 3: 1.21; 4: 0.29; 5: 0.162; 6: 0.614
